Tested on: SKMEL-2
CONDITION CONTEXT: read-out: Inhibition of H^3 Thymidine uptake (IC50 in nM); SKMEL-2 cells, 96 hours incubation
ENDPOINT LABEL: IC50 (nM)
Answers are plain numbers, in nM.

Consider the worked cases shown below.
compound=CO[C@H]1C[C@@H]2CC[C@@H](C)[C@@](O)(O2)C(=O)C(=O)N2CCCC[C@H]2C(=O)O[C@H]([C@H](C)C[C@@H]2CC[C@@H](OC(=O)N[C@H](CO)[C@@H](C)O)[C@H](OC)C2)CC(=O)[C@H](C)/C=C(\C)[C@@H](O)[C@@H](OC)C(=O)[C@H](C)C[C@H](C)/C=C/C=C/C=C/1C endpoint_label=IC50 experimental_result=8.32
compound=CO[C@H]1C[C@@H]2CC[C@@H](C)[C@@](O)(O2)C(=O)C(=O)N2CCCC[C@H]2C(=O)O[C@H]([C@H](C)C[C@@H]2CC[C@@H](OC(=O)NC3C(=O)OC(C)(C)OC3=O)[C@H](OC)C2)CC(=O)[C@H](C)/C=C(\C)[C@@H](O)[C@@H](OC)C(=O)[C@H](C)C[C@H](C)/C=C/C=C/C=C/1C endpoint_label=IC50 experimental_result=113

Continue with the next compound.
**Q:** Which measured IC50 value corresponds to CO[C@H]1C[C@@H]2CC[C@@H](C)[C@@](O)(O2)C(=O)C(=O)N2CCCC[C@H]2C(=O)O[C@H]([C@H](C)C[C@@H]2CC[C@@H](OC(=O)NCC(O)CO)[C@H](OC)C2)CC(=O)[C@H](C)/C=C(\C)[C@@H](O)[C@@H](OC)C(=O)[C@H](C)C[C@H](C)/C=C/C=C/C=C/1C (stereo partly drawn) ?
**A:** 11.7

----------
Exercise: state measured IC50 for each of the molecules provided.
Test system: MCF-7
CONDITION CONTEXT: read-out: Inhibition of H^3 Thymidine uptake (IC50 in nM); MCF-7 cells, 96 hours incubation
Answers are plain numbers, in nM.

Below are worked cases with known answers.
molecule=CO[C@H]1C[C@@H]2CC[C@@H](C)[C@@](O)(O2)C(=O)C(=O)N2CCCC[C@H]2C(=O)O[C@H]([C@H](C)C[C@@H]2CC[C@@H](OC(=O)NC(C)(CO)CO)[C@H](OC)C2)CC(=O)[C@H](C)/C=C(\C)[C@@H](O)[C@@H](OC)C(=O)[C@H](C)C[C@H](C)/C=C/C=C/C=C/1C unit_of_measurement=nM experimental_result=1.17
molecule=CO[C@H]1C[C@@H]2CC[C@@H](C)[C@@](O)(O2)C(=O)C(=O)N2CCCC[C@H]2C(=O)O[C@H]([C@H](C)C[C@@H]2CC[C@@H](OC(=O)N[C@@H](CO)[C@H](C)O)[C@H](OC)C2)CC(=O)[C@H](C)/C=C(\C)[C@@H](O)[C@@H](OC)C(=O)[C@H](C)C[C@H](C)/C=C/C=C/C=C/1C unit_of_measurement=nM experimental_result=1.29
molecule=COC(=O)C(NC(=O)O[C@@H]1CC[C@@H](C[C@@H](C)[C@@H]2CC(=O)[C@H](C)/C=C(\C)[C@@H](O)[C@@H](OC)C(=O)[C@H](C)C[C@H](C)/C=C/C=C/C=C(\C)[C@@H](OC)C[C@@H]3CC[C@@H](C)[C@@](O)(O3)C(=O)C(=O)N3CCCC[C@H]3C(=O)O2)C[C@H]1OC)C(=O)OC unit_of_measurement=nM experimental_result=103

# batch: return IC50 for each of the 6 molecules below
1. COC1CC2CCC(C)C(O)(O2)C(=O)C(=O)N2CCCCC2C(=O)OC(C(C)CC2CCC(OC(=O)NC(CO)CC(C)C)C(OC)C2)CC(=O)C(C)C=C(C)C(O)C(OC)C(=O)C(C)CC(C)C=CC=CC=C1C (stereo not drawn) [Compound 7t]
2. COC1CC2CCC(C)C(O)(O2)C(=O)C(=O)N2CCCCC2C(=O)OC(C(C)CC2CCC(OC(=O)NC(CO)CC(C)C)C(OC)C2)CC(=O)C(C)C=C(C)C(O)C(OC)C(=O)C(C)CC(C)C=CC=CC=C1C (stereo not drawn) [Compound 7s]
3. CCC(C)C(CO)NC(=O)O[C@@H]1CC[C@@H](C[C@@H](C)[C@@H]2CC(=O)[C@H](C)/C=C(\C)[C@@H](O)[C@@H](OC)C(=O)[C@H](C)C[C@H](C)/C=C/C=C/C=C(\C)[C@@H](OC)C[C@@H]3CC[C@@H](C)[C@@](O)(O3)C(=O)C(=O)N3CCCC[C@H]3C(=O)O2)C[C@H]1OC (stereo partly drawn)
4. CO[C@H]1C[C@@H]2CC[C@@H](C)[C@@](O)(O2)C(=O)C(=O)N2CCCC[C@H]2C(=O)O[C@H]([C@H](C)C[C@@H]2CC[C@@H](OC(=O)NC3C(=O)OC(C)(C)OC3=O)[C@H](OC)C2)CC(=O)[C@H](C)/C=C(\C)[C@@H](O)[C@@H](OC)C(=O)[C@H](C)C[C@H](C)/C=C/C=C/C=C/1C
5. CO[C@H]1C[C@@H]2CC[C@@H](C)[C@@](O)(O2)C(=O)C(=O)N2CCCC[C@H]2C(=O)O[C@H]([C@H](C)C[C@@H]2CC[C@@H](OC(=O)NC(CO)CO)[C@H](OC)C2)CC(=O)[C@H](C)/C=C(\C)[C@@H](O)[C@@H](OC)C(=O)[C@H](C)C[C@H](C)/C=C/C=C/C=C/1C
6. CO[C@H]1C[C@@H]2CC[C@@H](C)[C@@](O)(O2)C(=O)C(=O)N2CCCC[C@H]2C(=O)O[C@H]([C@H](C)C[C@@H]2CC[C@@H](OC(=O)CCC(=O)N[C@H](CO)Cc3ccccc3)[C@H](OC)C2)CC(=O)[C@H](C)/C=C(\C)[C@@H](O)[C@@H](OC)C(=O)[C@H](C)C[C@H](C)/C=C/C=C/C=C/1C

**A:**
1. 53.3
2. 15.6
3. 31.3
4. 7.09
5. 2.58
6. 5.52

For every item below, please supply its IC50.
1. CO[C@H]1C[C@@H]2CC[C@@H](C)[C@@](O)(O2)C(=O)C(=O)N2CCCC[C@H]2C(=O)O[C@H]([C@H](C)C[C@@H]2CC[C@@H](OC(=O)NCC(O)CO)[C@H](OC)C2)CC(=O)[C@H](C)/C=C(\C)[C@@H](O)[C@@H](OC)C(=O)[C@H](C)C[C@H](C)/C=C/C=C/C=C/1C (stereo partly drawn)
2. CO[C@H]1C[C@@H]2CC[C@@H](C)[C@@](O)(O2)C(=O)C(=O)N2CCCC[C@H]2C(=O)O[C@H]([C@H](C)C[C@@H]2CC[C@@H](OC(=O)N[C@@H](CO)[C@@H](O)c3ccccc3)[C@H](OC)C2)CC(=O)[C@H](C)/C=C(\C)[C@@H](O)[C@@H](OC)C(=O)[C@H](C)C[C@H](C)/C=C/C=C/C=C/1C
3. CO[C@H]1C[C@@H]2CC[C@@H](C)[C@@](O)(O2)C(=O)C(=O)N2CCCC[C@H]2C(=O)O[C@H]([C@H](C)C[C@@H]2CC[C@@H](OC(=O)N[C@H](CO)Cc3ccccc3)[C@H](OC)C2)CC(=O)[C@H](C)/C=C(\C)[C@@H](O)[C@@H](OC)C(=O)[C@H](C)C[C@H](C)/C=C/C=C/C=C/1C

**A:**
2.53
6.35
15.3

----------
Field: IC50. Provide a value for each of the compounds that follow.
Test system: A431
CONDITION CONTEXT: read-out: Inhibition of H^3 Thymidine uptake (IC50 in nM); A431 cells, 96 hours incubation
Give bare numbers, in nM.

structure_notation=CO[C@H]1C[C@@H]2CC[C@@H](C)[C@@](O)(O2)C(=O)C(=O)N2CCCC[C@H]2C(=O)O[C@H]([C@H](C)C[C@@H]2CC[C@@H](OC(=O)N[C@H](CO)Cc3ccccc3)[C@H](OC)C2)CC(=O)[C@H](C)/C=C(\C)[C@@H](O)[C@@H](OC)C(=O)[C@H](C)C[C@H](C)/C=C/C=C/C=C/1C subject_of_test=A431 experimental_result=506

Could you now look at the following compound, please?
**Q:** Quick check: IC50 on A431, item CO[C@H]1C[C@@H]2CC[C@@H](C)[C@@](O)(O2)C(=O)C(=O)N2CCCC[C@H]2C(=O)O[C@H]([C@H](C)C[C@@H]2CC[C@@H](OC(=O)N[C@@H](CO)[C@H](C)O)[C@H](OC)C2)CC(=O)[C@H](C)/C=C(\C)[C@@H](O)[C@@H](OC)C(=O)[C@H](C)C[C@H](C)/C=C/C=C/C=C/1C ?
**A:** 313

----------
Test system: D341
CONDITION CONTEXT: read-out: Inhibition of H^3 Thymidine uptake (IC50 in nM); D341 cells, 96 hours incubation
Please provide measured IC50 for the entries that follow.
Please answer using a numeric value trailed by its unit.

molecule=CO[C@H]1C[C@@H]2CC[C@@H](C)[C@@](O)(O2)C(=O)C(=O)N2CCCC[C@H]2C(=O)O[C@H]([C@H](C)C[C@@H]2CC[C@@H](OC(=O)N[C@@H](CO)[C@H](C)O)[C@H](OC)C2)CC(=O)[C@H](C)/C=C(\C)[C@@H](O)[C@@H](OC)C(=O)[C@H](C)C[C@H](C)/C=C/C=C/C=C/1C subject_of_test=D341 experimental_result="25.2 nM"

Now consider a different molecule.
**Q:** What value of IC50 has been recorded for this entry: CCC(C)C(CO)NC(=O)O[C@@H]1CC[C@@H](C[C@@H](C)[C@@H]2CC(=O)[C@H](C)/C=C(\C)[C@@H](O)[C@@H](OC)C(=O)[C@H](C)C[C@H](C)/C=C/C=C/C=C(\C)[C@@H](OC)C[C@@H]3CC[C@@H](C)[C@@](O)(O3)C(=O)C(=O)N3CCCC[C@H]3C(=O)O2)C[C@H]1OC (some centres unmarked)
**A:** 86.8 nM
